- tested_target: JAK1 (Homo sapiens, UniProt P23458)
- Sequence (P23458 whole entry): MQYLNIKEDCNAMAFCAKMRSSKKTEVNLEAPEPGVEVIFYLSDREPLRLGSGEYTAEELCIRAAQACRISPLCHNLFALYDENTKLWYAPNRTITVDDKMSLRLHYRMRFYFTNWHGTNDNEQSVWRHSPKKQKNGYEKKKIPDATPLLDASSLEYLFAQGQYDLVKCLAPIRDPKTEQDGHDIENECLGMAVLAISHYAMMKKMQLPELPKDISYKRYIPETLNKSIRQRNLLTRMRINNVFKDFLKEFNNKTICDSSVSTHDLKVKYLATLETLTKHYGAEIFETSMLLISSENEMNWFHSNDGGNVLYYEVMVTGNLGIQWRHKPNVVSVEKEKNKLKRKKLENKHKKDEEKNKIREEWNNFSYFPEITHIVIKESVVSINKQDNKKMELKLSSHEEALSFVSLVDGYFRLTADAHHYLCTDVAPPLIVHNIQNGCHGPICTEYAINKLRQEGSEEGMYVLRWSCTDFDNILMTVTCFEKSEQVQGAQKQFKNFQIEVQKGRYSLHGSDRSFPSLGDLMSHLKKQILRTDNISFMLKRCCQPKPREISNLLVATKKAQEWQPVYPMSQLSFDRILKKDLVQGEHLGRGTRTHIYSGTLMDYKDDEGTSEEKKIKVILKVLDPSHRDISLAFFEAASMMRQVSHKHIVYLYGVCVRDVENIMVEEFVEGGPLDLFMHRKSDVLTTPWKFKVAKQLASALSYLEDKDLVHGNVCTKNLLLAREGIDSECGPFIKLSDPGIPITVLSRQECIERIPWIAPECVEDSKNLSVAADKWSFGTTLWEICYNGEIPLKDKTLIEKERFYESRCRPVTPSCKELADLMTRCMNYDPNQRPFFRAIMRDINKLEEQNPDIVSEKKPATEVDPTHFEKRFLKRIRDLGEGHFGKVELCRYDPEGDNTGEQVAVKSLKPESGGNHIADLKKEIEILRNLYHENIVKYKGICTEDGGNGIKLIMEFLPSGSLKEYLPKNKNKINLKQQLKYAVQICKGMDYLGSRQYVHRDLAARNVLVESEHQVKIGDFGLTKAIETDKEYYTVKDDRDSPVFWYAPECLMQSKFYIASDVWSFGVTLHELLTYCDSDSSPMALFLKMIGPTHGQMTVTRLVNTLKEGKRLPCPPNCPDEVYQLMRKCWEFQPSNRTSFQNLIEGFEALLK
- test_method_notes: experiment of inhibiting kinase activity (Caliper mobility shift assay), JAK1
- Assay type: biochemical
- conditions: at 10 nM; read-out: inhibition rate JAK1
parameter: inhibition at 0.01 µM

CN1CCOc2ccc(Nc3nc(-c4cnn([C@H](CC#N)C5CCCC5)c4)c4cc[nH]c4n3)cc2OCC1 [Example 76]    40 to 79%
CN1CCOCCOc2ccc(Nc3nc(-c4ccc(C(=O)NCC#N)cc4)c4cc[nH]c4n3)cc2OCC1 [Example 51]    40 to 79%
CN1CCOc2ccc(Nc3nc(N4C[C@H]5CC[C@@H](C4)N5C(=O)C4CC4)c4cc[nH]c4n3)cc2OCC1 [Example 79]    40 to 79%

Problem: // query inhibition at 0.01 µM value for entry CN1CCOCCOc2cc(Nc3nc(-c4cnn([C@@H](CC#N)C5CCCC5)c4)c4cc[nH]c4n3)ccc2OCC1 [Example 75]
Result: > 80%

Problem: Recorded inhibition at 0.01 µM for CC(C)S(=O)(=O)c1ccccc1Nc1nc(Nc2ccc3c(c2)OCCOCCN(S(C)(=O)=O)CCO3)nc2[nH]ccc12 [Example 99] , please?
Result: 25 to 39%

Problem: Quick one: inhibition at 0.01 µM for CN1CCOc2ccc(Nc3ncc(C(F)(F)F)c(Nc4ccccc4P(C)(C)=O)n3)cc2OCC1 [Example 83] ?
Result: 25 to 39%

Problem: Please give the measured inhibition at 0.01 µM for this compound: CN1CCOCCOc2cc(Nc3nc(-c4cnn(C(CC#N)C5CCCC5)c4)c4cc[nH]c4n3)ccc2OCC1 (stereo not shown) [Example 26]
Result: > 80%

Problem: Consider the compound shown here: CN1CCOc2ccc(Nc3nc(-c4cnn([C@@H](CC#N)C5CCCC5)c4)c4cc[nH]c4n3)cc2OCC1 [Example 77] What is its recorded inhibition at 0.01 µM?
Result: > 80%

* * *

- tested_target: TYK2 (Homo sapiens)
- Sequence (P29597 whole entry): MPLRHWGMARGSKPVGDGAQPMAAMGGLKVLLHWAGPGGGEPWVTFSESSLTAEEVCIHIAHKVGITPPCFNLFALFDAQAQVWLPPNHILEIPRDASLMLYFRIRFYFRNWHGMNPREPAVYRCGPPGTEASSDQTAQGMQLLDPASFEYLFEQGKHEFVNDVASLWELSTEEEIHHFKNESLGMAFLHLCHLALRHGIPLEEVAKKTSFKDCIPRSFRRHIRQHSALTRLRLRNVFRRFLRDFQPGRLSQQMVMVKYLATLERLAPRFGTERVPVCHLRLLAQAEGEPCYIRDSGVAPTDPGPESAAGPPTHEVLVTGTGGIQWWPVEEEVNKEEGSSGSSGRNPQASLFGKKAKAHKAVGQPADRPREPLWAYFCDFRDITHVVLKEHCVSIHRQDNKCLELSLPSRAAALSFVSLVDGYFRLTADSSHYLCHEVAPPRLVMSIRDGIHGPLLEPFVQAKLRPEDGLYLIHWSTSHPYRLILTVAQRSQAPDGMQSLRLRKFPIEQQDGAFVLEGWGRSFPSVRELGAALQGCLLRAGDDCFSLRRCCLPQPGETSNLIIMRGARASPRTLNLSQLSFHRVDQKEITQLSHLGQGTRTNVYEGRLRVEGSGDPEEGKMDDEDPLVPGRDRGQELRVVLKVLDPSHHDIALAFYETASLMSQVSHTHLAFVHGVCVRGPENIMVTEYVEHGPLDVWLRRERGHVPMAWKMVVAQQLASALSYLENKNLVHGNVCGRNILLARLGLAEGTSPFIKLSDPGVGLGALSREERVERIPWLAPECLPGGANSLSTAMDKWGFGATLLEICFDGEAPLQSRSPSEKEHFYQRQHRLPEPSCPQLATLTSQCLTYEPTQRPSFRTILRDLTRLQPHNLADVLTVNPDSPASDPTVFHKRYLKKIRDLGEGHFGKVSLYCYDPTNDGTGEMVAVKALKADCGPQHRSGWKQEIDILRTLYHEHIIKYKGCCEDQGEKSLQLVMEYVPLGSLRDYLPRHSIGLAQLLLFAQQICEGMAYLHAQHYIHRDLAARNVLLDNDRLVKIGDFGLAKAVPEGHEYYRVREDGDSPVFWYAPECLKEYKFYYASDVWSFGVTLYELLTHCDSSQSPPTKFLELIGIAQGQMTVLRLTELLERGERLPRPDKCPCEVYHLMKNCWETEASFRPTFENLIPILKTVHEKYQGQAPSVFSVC
- test_method_notes: experiment of inhibiting kinase activity, TYK2
- Type: biochemical
- conditions: at 100 nM; read-out: inhibition rate TYK2
parameter: inhibition at 0.1 µM

CCS(=O)(=O)N1CC(CC#N)(n2cc(-c3nc(Nc4ccc5c(c4)OCCN(C)CCO5)ncc3F)cn2)C1    > 80%

Problem: // inhibition at 0.1 µM lookup, key: "CC(C)S(=O)(=O)c1ccccc1Nc1nc(Nc2ccc3c(c2)OCCOCCN(S(C)(=O)=O)CCO3)nc2[nH]ccc12"
Result: > 80%

Problem: Name the reported inhibition at 0.1 µM value associated with the molecule "CN1CCOc2ccc(Nc3ncc(F)c(-c4ccc(C(=O)NCC#N)cc4)n3)cc2OCC1"
Result: > 80%

Problem: Tell me the measured inhibition at 0.1 µM of "CN1CCOCCOc2cc(Nc3nc(-c4cn(C)c5ccccc45)c4cc[nH]c4n3)ccc2OCC1" , please.
Result: 25 to 39%

Problem: Suppose we examine the molecule "CC(C)S(=O)(=O)c1ccccc1Nc1nc(Nc2ccc3c(c2)OCCOCCN(C)CCO3)nc2[nH]ncc12" ; what inhibition at 0.1 µM value has been reported?
Result: > 80%

Problem: I would be grateful if you could share the reported inhibition at 0.1 µM for "CN1CCOCCOc2ccc(Nc3nc(Nc4cccc(S(=O)(=O)NC(C)(C)C)c4)c4cc[nH]c4n3)cc2OCC1" .
Result: 25 to 39%

Problem: Sample "CN1CCOCCOc2cc(Nc3ncc(F)c(Nc4cccc(S(=O)(=O)NC(C)(C)C)c4)n3)ccc2OCC1" — what was its inhibition at 0.1 µM?
Result: 40 to 79%

Problem: Reported inhibition at 0.1 µM, molecule "CN1CCOCCOc2cc(Nc3nc(Nc4cccc(S(=O)(=O)NC(C)(C)C)c4)c4cc[nH]c4n3)ccc2OCC1" : ____
Result: 25 to 39%

Problem: What value of inhibition at 0.1 µM has been reported for the following molecule? "CCS(=O)(=O)N1CC(CC#N)(n2cc(-c3nc(Nc4ccc5c(c4)OCCN(C)CCO5)nc4[nH]ncc34)cn2)C1"
Result: > 80%

Problem: What does the record list as inhibition at 0.1 µM for "CN1CCOCCOc2cc(Nc3ncc(F)c(Nc4ccc5[nH]ccc5c4)n3)ccc2OCC1" ?
Result: 40 to 79%

Problem: Endpoint output: inhibition at 0.1 µM of "CN1CCOCCOc2cc(Nc3ncc(F)c(-c4ccc(C(=O)NCC#N)cc4)n3)ccc2OCC1" . Value?
Result: > 80%

Problem: Fill in: inhibition at 0.1 µM of "CN1CCOc2ccc(Nc3ncc(F)c(-c4cn(C)c5ccccc45)n3)cc2OCC1" is ___
Result: 25 to 39%

Problem: What measured inhibition at 0.1 µM goes with CN1CCOc2ccc(Nc3ncc(F)c(-c4cnn(C(CC#N)C5CCCC5)c4)n3)cc2OCC1 (stereo not drawn) ?
Result: > 80%

Problem: Data request, read-out inhibition at 0.1 µM, for "CC(C)S(=O)(=O)c1ccccc1Nc1nc(Nc2ccc3c(c2)OCCN(C)CCO3)nc2[nH]ccc12"
Result: 40 to 79%

Problem: For the molecule shown here, "CN1CCOCCOc2ccc(Nc3ncc(F)c(-c4ccc(C(=O)NCC#N)cc4)n3)cc2OCC1" , give the reported inhibition at 0.1 µM.
Result: > 80%
